Measurement Notes: PK and tissue distribution after repeated oral administration in Ba/F3-EPOR-JAK2^V617F tumor-bearing mice
Assay type: in vivo
Cond: BALB/c nude, mouse; Spleen; repeated oral 30 mg/kg
Experimental Readout: half-life (h)

[[record]]
compound = "Cc1cnc(Nc2ccc(N3CCC(N(C)CCO)CC3)c(F)c2)nc1-c1cnn(C(C)C)c1 [FM]"
readout_units = "h"
numeric_result = 2.37


====

Measurement Notes: PK and tissue distribution after single oral administration in Ba/F3-EPOR-JAK2^V617F tumor-bearing mice
Type: in vivo
Cond: BALB/c nude, mouse, brain, oral, 30 mg/kg; single; 8 h; read-out: FM concentration, Brain
Experimental Readout: concentration at 8 h (ng/g)

[[record]]
line_notation = "Cc1cnc(Nc2ccc(N3CCC(N(C)CCO)CC3)c(F)c2)nc1-c1cnn(C(C)C)c1"
experimental_readout = "concentration at 8 h"
numeric_result = 38.4


====

Target Or Test System: JAK3 (Homo sapiens)
Sequence (P52333 whole entry): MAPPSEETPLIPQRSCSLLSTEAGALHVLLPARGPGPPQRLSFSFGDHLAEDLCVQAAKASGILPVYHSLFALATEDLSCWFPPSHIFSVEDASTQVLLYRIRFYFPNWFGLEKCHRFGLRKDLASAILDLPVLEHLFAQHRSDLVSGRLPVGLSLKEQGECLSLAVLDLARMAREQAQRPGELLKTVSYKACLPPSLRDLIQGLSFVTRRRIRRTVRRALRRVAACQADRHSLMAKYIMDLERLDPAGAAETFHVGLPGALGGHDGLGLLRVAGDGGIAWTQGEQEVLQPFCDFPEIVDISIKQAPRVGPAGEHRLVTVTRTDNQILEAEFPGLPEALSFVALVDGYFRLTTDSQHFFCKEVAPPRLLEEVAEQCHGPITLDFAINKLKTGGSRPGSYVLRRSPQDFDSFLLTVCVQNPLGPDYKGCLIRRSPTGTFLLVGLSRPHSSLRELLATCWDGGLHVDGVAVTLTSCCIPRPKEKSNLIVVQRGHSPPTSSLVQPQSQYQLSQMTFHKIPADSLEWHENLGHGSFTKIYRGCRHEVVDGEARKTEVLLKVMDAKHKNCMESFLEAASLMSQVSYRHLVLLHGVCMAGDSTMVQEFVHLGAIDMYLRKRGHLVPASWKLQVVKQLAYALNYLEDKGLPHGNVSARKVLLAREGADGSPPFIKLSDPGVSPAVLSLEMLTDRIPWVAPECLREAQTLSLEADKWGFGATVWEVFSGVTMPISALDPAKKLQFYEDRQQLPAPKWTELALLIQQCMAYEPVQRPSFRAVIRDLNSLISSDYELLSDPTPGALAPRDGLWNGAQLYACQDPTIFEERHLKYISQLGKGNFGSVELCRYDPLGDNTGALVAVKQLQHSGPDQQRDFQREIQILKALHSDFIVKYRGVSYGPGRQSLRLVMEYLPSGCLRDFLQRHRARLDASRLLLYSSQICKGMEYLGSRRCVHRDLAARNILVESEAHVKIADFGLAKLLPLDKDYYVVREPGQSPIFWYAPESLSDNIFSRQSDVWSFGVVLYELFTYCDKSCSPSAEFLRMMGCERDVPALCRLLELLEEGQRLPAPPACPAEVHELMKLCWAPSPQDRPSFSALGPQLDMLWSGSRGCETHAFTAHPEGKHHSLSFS
Experimental Readout: IC50 (nM)

[[record]]
line_notation = "Cc1cnc(Nc2ccc(N3CCC(N(C)CCO)CC3)c(F)c2)nc1-c1cnn(C(C)C)c1"
readout_units = "nM"
numeric_result = 557


====

Measurement Notes: PK and tissue distribution after repeated oral administration in Ba/F3-EPOR-JAK2^V617F tumor-bearing mice
Type: in vivo
Cond: BALB/c nude, mouse, brain, oral, 30 mg/kg; repeated; 12 h; read-out: FM concentration, Brain
Experimental Readout: concentration at 12 h (ng/g)

[[record]]
line_notation = "Cc1cnc(Nc2ccc(N3CCC(N(C)CCO)CC3)c(F)c2)nc1-c1cnn(C(C)C)c1"
readout_units = "ng/g"
numeric_result = 10.8


====

Measurement Notes: PK and tissue distribution after repeated oral administration in Ba/F3-EPOR-JAK2^V617F tumor-bearing mice
Format: in vivo
Cond: BALB/c nude, mouse, stomach, oral, 30 mg/kg; repeated; 8 h; read-out: FM concentration, Stomach
Experimental Readout: concentration at 8 h (ng/g)

[[record]]
molecule = "Cc1cnc(Nc2ccc(N3CCC(N(C)CCO)CC3)c(F)c2)nc1-c1cnn(C(C)C)c1 [FM]"
experimental_readout = "concentration at 8 h"
numeric_result = 3500


====

Measurement Notes: PK and tissue distribution after single oral administration in Ba/F3-EPOR-JAK2^V617F tumor-bearing mice
Format: in vivo
Cond: BALB/c nude, mouse, liver, oral, 30 mg/kg; single; 8 h; read-out: FM concentration, Liver
Experimental Readout: concentration at 8 h (ng/g)

[[record]]
compound = "Cc1cnc(Nc2ccc(N3CCC(N(C)CCO)CC3)c(F)c2)nc1-c1cnn(C(C)C)c1 [FM]"
experimental_readout = "concentration at 8 h"
numeric_result = 845


====

Measurement Notes: PK and tissue distribution after repeated oral administration in Ba/F3-EPOR-JAK2^V617F tumor-bearing mice
Format: in vivo
Cond: BALB/c nude, mouse, kidney, oral, 30 mg/kg; repeated; 8 h; read-out: FM concentration, Kidney
Experimental Readout: concentration at 8 h

[[record]]
line_notation = "Cc1cnc(Nc2ccc(N3CCC(N(C)CCO)CC3)c(F)c2)nc1-c1cnn(C(C)C)c1"
result = "1790 ng/g"


====

Measurement Notes: PK and tissue distribution after repeated oral administration in Ba/F3-EPOR-JAK2^V617F tumor-bearing mice
Type: in vivo
Cond: BALB/c nude, mouse, lung, oral, 30 mg/kg; repeated; 2 h; read-out: FM concentration, Lung
Experimental Readout: concentration at 2 h (ng/g)

[[record]]
compound = "Cc1cnc(Nc2ccc(N3CCC(N(C)CCO)CC3)c(F)c2)nc1-c1cnn(C(C)C)c1 [FM]"
readout_units = "ng/g"
numeric_result = 7150


====

Measurement Notes: PK and tissue distribution after repeated oral administration in Ba/F3-EPOR-JAK2^V617F tumor-bearing mice
Type: in vivo
Cond: BALB/c nude, mouse, brain, oral, 30 mg/kg; repeated; 2 h; read-out: FM concentration, Brain
Experimental Readout: concentration at 2 h (ng/g)

[[record]]
molecule = "Cc1cnc(Nc2ccc(N3CCC(N(C)CCO)CC3)c(F)c2)nc1-c1cnn(C(C)C)c1 [FM]"
experimental_readout = "concentration at 2 h"
readout_units = "ng/g"
numeric_result = 369


====

System: MV-4-11
Measurement Notes: MTT assay for cell proliferation
Format: cell-based
Cond: Homo sapiens, MV4-11; MV-4-11; FLT3-ITD expression; MTT 72 h; read-out: IC50(μM) ± SD, tumor cell proliferation
Experimental Readout: IC50

[[record]]
compound = "Cc1cnc(Nc2ccc(OCCN3CCCC3)cc2)nc1Nc1cccc(S(=O)(=O)NC(C)(C)C)c1 [Fedratinib, reference compound]"
target_or_test_system = "MV-4-11"
experimental_readout = "IC50"
result = "0.26 µM"


====

Measurement Notes: PK and tissue distribution after repeated oral administration in Ba/F3-EPOR-JAK2^V617F tumor-bearing mice
Format: in vivo
Cond: BALB/c nude, mouse, stomach, oral, 30 mg/kg; repeated; 4 h; read-out: FM concentration, Stomach
Experimental Readout: concentration at 4 h (ng/g)

[[record]]
line_notation = "Cc1cnc(Nc2ccc(N3CCC(N(C)CCO)CC3)c(F)c2)nc1-c1cnn(C(C)C)c1"
experimental_readout = "concentration at 4 h"
numeric_result = 11700


====

Measurement Notes: PK and tissue distribution after repeated oral administration in Ba/F3-EPOR-JAK2^V617F tumor-bearing mice
Assay type: in vivo
Cond: BALB/c nude, mouse, lung, oral, 30 mg/kg; repeated; 0.5 h; read-out: FM concentration, Lung
Experimental Readout: concentration at 0.5 h

[[record]]
line_notation = "Cc1cnc(Nc2ccc(N3CCC(N(C)CCO)CC3)c(F)c2)nc1-c1cnn(C(C)C)c1"
experimental_readout = "concentration at 0.5 h"
result = "11400 ng/g"


====

Measurement Notes: PK and tissue distribution after repeated oral administration in Ba/F3-EPOR-JAK2^V617F tumor-bearing mice
Format: in vivo
Cond: BALB/c nude, mouse, lung, oral, 30 mg/kg; repeated; 4 h; read-out: FM concentration, Lung
Experimental Readout: concentration at 4 h (ng/g)

[[record]]
line_notation = "Cc1cnc(Nc2ccc(N3CCC(N(C)CCO)CC3)c(F)c2)nc1-c1cnn(C(C)C)c1"
readout_units = "ng/g"
numeric_result = 3890


====

Measurement Notes: PK and tissue distribution after repeated oral administration in Ba/F3-EPOR-JAK2^V617F tumor-bearing mice
Type: in vivo
Cond: BALB/c nude, mouse, muscle, oral, 30 mg/kg; repeated; 2 h; read-out: FM concentration, Muscle
Experimental Readout: concentration at 2 h (ng/g)

[[record]]
compound = "Cc1cnc(Nc2ccc(N3CCC(N(C)CCO)CC3)c(F)c2)nc1-c1cnn(C(C)C)c1 [FM]"
experimental_readout = "concentration at 2 h"
readout_units = "ng/g"
numeric_result = 275


====

Measurement Notes: PK and tissue distribution after single oral administration in Ba/F3-EPOR-JAK2^V617F tumor-bearing mice
Format: in vivo
Cond: BALB/c nude, mouse, lung, oral, 30 mg/kg; single; 0.5 h; read-out: FM concentration, Lung
Experimental Readout: concentration at 0.5 h (ng/g)

[[record]]
compound = "Cc1cnc(Nc2ccc(N3CCC(N(C)CCO)CC3)c(F)c2)nc1-c1cnn(C(C)C)c1 [FM]"
experimental_readout = "concentration at 0.5 h"
numeric_result = 11600


====

Measurement Notes: PK and tissue distribution after single oral administration in Ba/F3-EPOR-JAK2^V617F tumor-bearing mice
Format: in vivo
Cond: BALB/c nude, mouse, spleen, oral, 30 mg/kg; single; 4 h; read-out: FM concentration, Spleen
Experimental Readout: concentration at 4 h (ng/g)

[[record]]
compound = "Cc1cnc(Nc2ccc(N3CCC(N(C)CCO)CC3)c(F)c2)nc1-c1cnn(C(C)C)c1 [FM]"
numeric_result = 3810


====

Measurement Notes: PK and tissue distribution after repeated oral administration in Ba/F3-EPOR-JAK2^V617F tumor-bearing mice
Assay type: in vivo
Cond: BALB/c nude, mouse, intestine, oral, 30 mg/kg; repeated; 2 h; read-out: FM concentration, Intestine
Experimental Readout: concentration at 2 h (ng/g)

[[record]]
molecule = "Cc1cnc(Nc2ccc(N3CCC(N(C)CCO)CC3)c(F)c2)nc1-c1cnn(C(C)C)c1 [FM]"
numeric_result = 4210


====

Measurement Notes: PK and tissue distribution after repeated oral administration in Ba/F3-EPOR-JAK2^V617F tumor-bearing mice
Type: in vivo
Cond: BALB/c nude, mouse, muscle, oral, 30 mg/kg; repeated; 12 h; read-out: FM concentration, Muscle
Experimental Readout: concentration at 12 h (ng/g)

[[record]]
line_notation = "Cc1cnc(Nc2ccc(N3CCC(N(C)CCO)CC3)c(F)c2)nc1-c1cnn(C(C)C)c1"
experimental_readout = "concentration at 12 h"
numeric_result = 13.3


====

Measurement Notes: PK and tissue distribution after single oral administration in Ba/F3-EPOR-JAK2^V617F tumor-bearing mice
Assay type: in vivo
Cond: BALB/c nude, mouse, muscle, oral, 30 mg/kg; single; 8 h; read-out: FM concentration, Muscle
Experimental Readout: concentration at 8 h (ng/g)

[[record]]
line_notation = "Cc1cnc(Nc2ccc(N3CCC(N(C)CCO)CC3)c(F)c2)nc1-c1cnn(C(C)C)c1"
experimental_readout = "concentration at 8 h"
numeric_result = 43.1

